# Test system: CAKI-1 renal
# METHOD_SUMMARY: NCI-60 one-dose screen, 48 h (100 = growth as untreated, 0 = no growth, -100 = all killed)
# PARTICULARS: 10 µM unless noted
This is part of a sample that, as a whole, favours compounds with a hit. Of some 83,000 tested, about 20% had one in any assay.
MEASURE_NAME: growth (%)
Give the value, in units of %, as a plain number.

For orientation, consider the following solved cases.
- COMPOUND: "COc1ccccc1N1CCN(CCn2c(=O)c3c(c4ccccc4n3C)n(C)c2=O)CC1"
  growth / %: 101
- COMPOUND: "CCN(CC)CC(C)Nc1ccc([N+](=O)[O-])c2sc3ccccc3c(=O)c12 (stereo not given)"
  growth / %: 18.1
- COMPOUND: "CC1(C)CC(=O)C(c2c(-c3ccccc3)[nH]c3[nH]c(=S)[nH]c(=O)c23)=C(O)C1"
  growth / %: 125
- COMPOUND: "COc1cc(C2CC(=O)Nc3c2c(C)nn3-c2nc3ccccc3[nH]2)cc(OC)c1OC (stereo not given)"
  growth / %: 114
- COMPOUND: "CC[C@]12C=CCN3CC[C@@]4(c5ccc(OC)cc5N(C)[C@H]4[C@@](O)(C(=O)OC)[C@@H]1OC(=O)CCC(=O)N[C@@H](Cc1c[nH]c4ccccc14)C(=O)OC)[C@@H]32"
  growth / %: 108

Which growth reading was recorded for the compound COC(=O)[C@@H]1CC[C@]2(C)[C@H](CC[C@@H]3O[C@@]32C)[C@@]1(C)CC(=O)c1ccoc1 ? 106

Which growth reading was recorded for the compound COc1ccc(C/C(C)=C(\c2ccc(Cl)cc2)c2ccc(OCCN3CCCCCC3)cc2)cc1 ? 84.1

Which growth reading was recorded for the compound CC1=C(NCCN2CCCC2)C(=O)c2c(OCc3ccc(F)c(Cl)c3)cccc2C1=O ? 50.2

Which growth reading was recorded for the compound CCCCCn1cnc2c(=S)nc[nH]c21 ? 115

Which growth reading was recorded for the compound CC(C)CC(CC1=CCC2CC1C2(C)C)C1=C(O)C(C)(C)C(=O)C(C)(C)C1=O (stereo not given) ? 6.44

Which growth reading was recorded for the compound Cn1cc(-c2csc(-c3cn(C)c4ncccc34)n2)c2ccccc21 ? 35.1

Which growth reading was recorded for the compound C=C1CC[C@@H]2[C@](C)(COC(C)=O)[C@H](OC(C)=O)CC[C@@]2(C)[C@@H]1CC(Nc1ccc(S(=O)(=O)Nc2nc(C)cc(C)n2)cc1)C1=CCOC1=O (stereo not given in full) ? 74

Which growth reading was recorded for the compound CN(C)CCOc1ccc(-c2nc3ccc(-c4nc5ccc(N6CCN(C)CC6)cc5[nH]4)cc3[nH]2)cc1 ? 89.6

Which growth reading was recorded for the compound Cc1ccc(SCN2CCN(c3cccc(Cl)c3)CC2)cc1 ? 70.7

Which growth reading was recorded for the compound COc1ccc(/C=C/C(=O)c2c(O)c(C)c(O)c3c2OC2=CC(O)=C(C(C)=O)C(=O)[C@]23C)cc1 ? 6.28

====

# System: KM12 colon
# METHOD_SUMMARY: NCI-60 one-dose screen, 48 h (100 = growth as untreated, 0 = no growth, -100 = all killed)
# PARTICULARS: 10 µM unless noted
This is part of a sample that, as a whole, favours compounds with a hit. Of some 83,000 tested, about 20% had one in any assay.
MEASURE_NAME: growth (%)
Give the value, in units of %, as a plain number.

- COMPOUND: "CCCCCCCCCCCCCCCCCCSC1=CC(=O)C(OC)=C(OC)C1=O"
  ASSAYED_SYSTEM: "KM12 colon"
  growth, %: 94.4
- COMPOUND: "O=C(O)c1cccnc1Br"
  ASSAYED_SYSTEM: "KM12 colon"
  growth, %: 113
- COMPOUND: "Cc1cc(=O)oc2cc(Oc3nc(-c4ccc(Cl)cc4)cn4c(-c5ccc(Cl)cc5)cnc34)ccc12"
  ASSAYED_SYSTEM: "KM12 colon"
  growth, %: 81.2
- COMPOUND: "CCN(CC)CC(O)c1cc(-c2ccc(Cl)cc2)nc2c(C)c(Cl)ccc12 (centres undefined)"
  ASSAYED_SYSTEM: "KM12 colon"
  growth, %: -100
- COMPOUND: "CCOC(=O)c1cnc2ccc(OC)cc2c1Nc1cccc(S(=O)(=O)NC)c1"
  ASSAYED_SYSTEM: "KM12 colon"
  growth, %: 96.1

Which growth reading was recorded for the compound COc1ccc(-c2cc(C(=O)N=Nc3c(O)[nH]c4ccccc34)no2)cc1 ? 101

Which growth reading was recorded for the compound CCN(CC)CCC(=O)Nc1ccc(Cn2nnc3c2C(=O)c2nnn(Cc4ccc(NC(=O)CCN(CC)CC)cc4)c2C3=O)cc1 ? -6.54

Which growth reading was recorded for the compound CN(C)CC(=O)Nc1ccc(Cn2nnc3c2C(=O)c2nnn(Cc4ccc(NC(=O)CN(C)C)cc4)c2C3=O)cc1 ? -54.6

Which growth reading was recorded for the compound O=[N+]([O-])c1cccc(-c2nc3sccn3c2-c2ccnc(NCCCNS(=O)(=O)c3ccc(Br)cc3)n2)c1 ? 40.5

Which growth reading was recorded for the compound O=C1C(=O)N(CCCCn2cc(CO)nn2)c2ccccc21 ? 101

Which growth reading was recorded for the compound COc1ccc(C(=O)c2sc3nc4c(c(C(F)(F)F)c3c2N)CN(C(C)=O)CC4)cc1OC ? 97.6

Which growth reading was recorded for the compound CCCCCN(CCCCC)CCC[C@@H](C)[C@H]1CC[C@H]2[C@@H]3[C@H](OCCCN)C[C@@H]4C[C@H](OCCCN)CC[C@]4(C)[C@H]3C[C@H](OCCCN)[C@]12C ? 22.5

Which growth reading was recorded for the compound CN1CCN(c2ccc3nc(-c4ccc5nc(-c6ccc(OCCC(C)(C)C)cc6)[nH]c5c4)[nH]c3c2)CC1 ? -60.6

====

# System: NCI/ADR-RES ovarian
# METHOD_SUMMARY: NCI-60 one-dose screen, 48 h (100 = growth as untreated, 0 = no growth, -100 = all killed)
# PARTICULARS: 10 µM unless noted
About 83,000 compounds went through this panel and 20% of them were active in at least one assay; those are over-represented in the sample as a whole.
// label = met if growth is not less than 70%, otherwise not met

These recorded examples may help you get a feel for the data.
- COMPOUND: "O=C(Nc1ccc(Oc2ccc(F)cc2)c(Cl)c1)c1cccnc1"
  CATEGORY: "met"
- COMPOUND: "Clc1ccc(-c2nnc(COc3ccccc3Cl)o2)cc1"
  CATEGORY: "not met"
- COMPOUND: "COc1c(C2CC(=O)Nc3c2cnn3Cc2ccco2)cc2c(c1OC)OCO2 (stereo unspecified)"
  CATEGORY: "not met"
- COMPOUND: "COc1cc(C(=O)/C=C/c2c(C)n([O-])c3ccc(C)cc3[n+]2=O)cc(OC)c1OC"
  CATEGORY: "met"
- COMPOUND: "Cc1cc(OCc2ccc(C(F)(F)F)cc2)c2c(c1)C(=O)C=C(NCCN1CCCC1)C2=O"
  CATEGORY: "met"

Reported growth at or above 70%? O=c1cc(-c2ccccc2)[nH]c2ccccc12 not met

Reported growth at or above 70%? Oc1cc(O)c2c(=S)cc(-c3ccc(Cl)cc3)oc2c1 not met

Reported growth at or above 70%? O=C(COc1cccc(/C=C2/Oc3ccccc3C2=O)c1)Nc1nccs1 met

Reported growth at or above 70%? NC1=CC(=O)C(=O)c2ccccc21 not met

Reported growth at or above 70%? COc1ccc(C(=O)COc2ccc(/C=C3\Oc4ccc(Cl)cc4C3=O)cc2)cc1 met

Reported growth at or above 70%? CCOC(=O)/C=C/C(=O)[C@H](CC(C)C)NC(=O)[C@H](Cc1ccccc1)NC(=O)OCc1ccccc1 met

Reported growth at or above 70%? CCCCCCCCSC1=CC(=O)C(OC)=C(OC)C1=O not met

====

# Tested on: HS 578T breast
# METHOD_SUMMARY: NCI-60 one-dose screen, 48 h (100 = growth as untreated, 0 = no growth, -100 = all killed)
# PARTICULARS: 10 µM unless noted
This is part of a sample that, as a whole, favours compounds with a hit. Of some 83,000 tested, about 20% had one in any assay.
Measured growth values are reported for all entries that follow.
Give the value, in units of %, as a plain number.

For orientation, consider the following solved cases.
- COMPOUND: "CCCCCn1cnc2c(=S)nc[nH]c21"
  ASSAYED_SYSTEM: "HS 578T breast"
  growth, %: 101
- COMPOUND: "OC(c1cc(-c2ccccc2)nc2ccc(Cl)cc12)C1CCCCN1 (stereo not given)"
  ASSAYED_SYSTEM: "HS 578T breast"
  growth, %: 61.6
- COMPOUND: "O=C1C=CC(Nc2ccccc2[N+](=O)[O-])C1Nc1ccccc1[N+](=O)[O-] (stereo not given)"
  ASSAYED_SYSTEM: "HS 578T breast"
  growth, %: 32
- COMPOUND: "C[C@@H]1CC[C@@H]2[C@@H]1[C@H](OC(=O)/C=C/c1ccccc1)[C@]1(c3ccccc3)C[C@@H](OC(=O)CO)[C@@]2(C)O1"
  ASSAYED_SYSTEM: "HS 578T breast"
  growth, %: -20
- COMPOUND: "COC1/C=C\\OC2(C)Oc3c(C)c(O)c4c(O)c(c(CN(C)CCO)c(O)c4c3C2=O)NC(=O)/C(C)=C\\C=C/C(C)C(O)C(C)C(O)C(C)C(OC(C)=O)C1C (stereo not given)"
  ASSAYED_SYSTEM: "HS 578T breast"
  growth, %: 104

Which growth reading was recorded for the compound C=C1CCC2C3(C)COC(c4ccc(SC)cc4)OC3CCC2(C)C1C/C=C1/C(=O)OCC1O (stereo not given) ? 102

Which growth reading was recorded for the compound CS(=O)(CCCCN=C=S)=NC(=O)c1c(F)c(F)c(F)c(F)c1F (stereo not given) ? 88.7
